Entries and their IC50 values follow.
- TEST SYSTEM: Serine protease hepsin (Homo sapiens, UniProt P05981)
- Sequence (P05981 1-162 limits assumed): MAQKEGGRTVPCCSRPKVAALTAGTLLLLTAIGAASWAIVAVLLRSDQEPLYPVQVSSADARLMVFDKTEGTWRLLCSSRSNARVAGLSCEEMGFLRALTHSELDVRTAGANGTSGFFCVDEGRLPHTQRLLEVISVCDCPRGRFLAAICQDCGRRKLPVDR
- Sequence (P05981 163-417 limits assumed): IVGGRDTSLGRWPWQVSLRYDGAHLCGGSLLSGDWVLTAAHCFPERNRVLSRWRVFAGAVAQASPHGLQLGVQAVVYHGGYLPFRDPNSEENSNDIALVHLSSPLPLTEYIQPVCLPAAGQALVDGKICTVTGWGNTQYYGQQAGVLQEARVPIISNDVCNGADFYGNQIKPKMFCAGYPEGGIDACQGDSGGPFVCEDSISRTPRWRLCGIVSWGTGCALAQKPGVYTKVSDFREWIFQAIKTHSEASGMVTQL
- EXPERIMENT: Inhibition of C-terminal 10-His tagged human recombinant hepsin (Arg45 to Leu417 residues) using Boc-QAR-AMC as substrate preincubated for 30 mins followed by substrate addition and measured by fluorescence based analysis
Report only the number, with the unit nM understood.

Below, each entry is followed by its recorded IC50 result.
[[record]]
molecule_smiles = "CC(=O)N[C@H]1Cc2ccc(cc2)Oc2ccc(cc2)C[C@@H](C(=O)N[C@@H](CCCNC(=N)N)C(=O)c2nc3ccccc3s2)NC(=O)[C@H](CC(C)C)NC1=O"
test_system = "Serine protease hepsin (Homo sapiens, UniProt P05981)"
unit = "nM"
recorded_value = 7.5

[[record]]
molecule_smiles = "CC(=O)N[C@H]1Cc2ccc(cc2)Oc2cccc(c2)C[C@@H](C(=O)N[C@@H](CCCNC(=N)N)C(=O)c2nc3ccccc3s2)NC(=O)[C@H](CC(C)C)NC1=O"
test_system = "Serine protease hepsin (Homo sapiens, UniProt P05981)"
unit = "nM"
recorded_value = 0.2

[[record]]
molecule_smiles = "CC(=O)N[C@H]1Cc2ccc(cc2)OCCCC[C@@H](C(=O)N[C@@H](CCCNC(=N)N)C(=O)c2nc3ccccc3s2)NC(=O)[C@H](Cc2c[nH]c3ccccc23)NC1=O"
test_system = "Serine protease hepsin (Homo sapiens, UniProt P05981)"
unit = "nM"
recorded_value = 2.8


Next compound, please.
What value of IC50 on Serine protease hepsin (Homo sapiens, UniProt P05981) does CC(=O)N[C@H]1C/C=C/COc2ccc(cc2)C[C@@H](C(=O)N[C@@H](CCCNC(=N)N)C(=O)c2nc3ccccc3s2)NC(=O)[C@H](CC(C)C)NC1=O have? 20

---

- TEST SYSTEM: Transmembrane protease serine 2 (Homo sapiens)
- Sequence (O15393 1-255 limits assumed): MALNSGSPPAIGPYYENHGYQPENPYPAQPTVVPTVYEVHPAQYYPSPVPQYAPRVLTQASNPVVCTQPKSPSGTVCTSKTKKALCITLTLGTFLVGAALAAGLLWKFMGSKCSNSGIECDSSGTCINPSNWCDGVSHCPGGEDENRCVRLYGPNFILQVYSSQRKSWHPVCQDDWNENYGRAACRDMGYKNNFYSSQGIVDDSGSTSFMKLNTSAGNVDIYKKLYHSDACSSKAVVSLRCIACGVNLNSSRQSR
- Sequence (O15393 256-492 limits assumed): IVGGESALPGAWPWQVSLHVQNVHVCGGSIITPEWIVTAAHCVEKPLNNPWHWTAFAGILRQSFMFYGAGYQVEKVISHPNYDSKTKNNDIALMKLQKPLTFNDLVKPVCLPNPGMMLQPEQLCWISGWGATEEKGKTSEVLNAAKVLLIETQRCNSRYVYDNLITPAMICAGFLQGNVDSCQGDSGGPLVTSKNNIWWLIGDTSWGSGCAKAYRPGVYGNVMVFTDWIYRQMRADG
- EXPERIMENT: Inhibition of N-terminal 6His-tagged human recombinant TMPRSS2 (106 to 492 residues) using Boc-QAR-AMC as substrate preincubated for 30 mins followed by substrate addition and measured by fluorescence based analysis
OBSERVED PROPERTY: pIC50
Just so you know, pIC50 here is -log10 of the concentration in molar units; reply with that number alone.

A selection of reference data follows.
[[record]]
molecule_smiles = "CC(=O)N[C@H]1Cc2ccc(cc2)OC/C=C\\CNC(=O)C[C@@H](C(=O)N[C@@H](CCCNC(=N)N)C(=O)c2nc3ccccc3s2)NC(=O)[C@H](CC(C)C)NC1=O"
observed_property = "pIC50"
recorded_value = 7.66

[[record]]
molecule_smiles = "CC(=O)N[C@H]1C/C=C/COc2ccc(cc2)C[C@@H](C(=O)N[C@@H](CCCNC(=N)N)C(=O)c2nc3ccccc3s2)NC(=O)[C@H](CC(C)C)NC1=O"
observed_property = "pIC50"
recorded_value = 7.85

[[record]]
molecule_smiles = "CC(=O)N[C@H]1Cc2cccc(c2)Oc2ccc(cc2)C[C@@H](C(=O)N[C@@H](CCCNC(=N)N)C(=O)c2nc3ccccc3s2)NC(=O)[C@H](CC(C)C)NC1=O"
observed_property = "pIC50"
recorded_value = 7.82

[[record]]
molecule_smiles = "CC(=O)N[C@H]1Cc2ccc(cc2)OCCCC[C@@H](C(=O)N[C@@H](CCCNC(=N)N)C(=O)c2nc3ccccc3s2)NC(=O)[C@H](Cc2ccccc2)NC1=O"
observed_property = "pIC50"
recorded_value = 7.80

[[record]]
molecule_smiles = "CC(=O)N[C@H]1Cc2ccc(cc2)OC/C=C/C[C@@H](C(=O)N[C@@H](CCCNC(=N)N)C(=O)c2nc3ccccc3s2)NC(=O)[C@H](CC(C)C)NC1=O"
observed_property = "pIC50"
recorded_value = 8.92


Quick one: pIC50 for CC(=O)N[C@H]1Cc2ccc(cc2)Oc2ccc(cc2)C[C@@H](C(=O)N[C@@H](CCCNC(=N)N)C(=O)c2nc3ccccc3s2)NC(=O)[C@H](CC(C)C)NC1=O ? 8.92

Same lookup for CC(=O)N[C@H]1Cc2ccc(cc2)OCCCC[C@@H](C(=O)N[C@@H](CCCNC(=N)N)C(=O)c2nc3ccccc3s2)NC(=O)[C@@H](Cc2c[nH]c3ccccc23)NC1=O , please. 8.43
